Test Summary: AUC (0 to t) in fasted Sprague-Dawley rat at 19 mg/kg, po by LC-MS/MS analysis
Type: ADME, organism-based
Measurement Context: in vivo
Test Readout: AUC(0-t) (ng·h/mL)
Just the number in ng·h/mL, nothing appended.

Give reported AUC(0-t) value for CC(C)C(=O)OC[C@@]1(F)O[C@@H](n2ccc(=O)n(COC(=O)c3cccnc3)c2=O)[C@@H]2OC(=O)O[C@@H]21
9450

---

Test Summary: AUC (0 to t) in fasted Cynomolgus monkey at 5 mg/kg, po by LC-MS/MS analysis
Format: ADME, organism-based, Macaca fascicularis
Measurement Context: in vivo
Test Readout: AUC(0-t) (ng·h/mL)
Just the number in ng·h/mL, nothing appended.

Give reported AUC(0-t) value for O=c1ccn([C@@H]2O[C@](F)(CO)[C@@H](O)[C@H]2O)c(=O)[nH]1
11600
